Recorded GI50, one value per entry.
Tested on: HOP-62
Test: NCI tumour cell line growth inhibition, 48 h
Active and inactive are the calls of the source. Cut-off read from the data, not from the text of the source: active = GI50 up to about 1.1 µM and inactive = higher.

Past entries and their recorded results:
>  <compound>
O=C1OC2(C(F)(F)F)Oc3ccccc3CN2C12CCCCC2 (configuration not stated)

>  <tgt>
HOP-62

>  <GI50>
29.2 µM (inactive)

$$$$
>  <compound>
NCCN1C(=O)c2ccccc2C1c1ccc(Cl)cc1 (configuration not stated)

>  <tgt>
HOP-62

>  <GI50>
> 100 µM (inactive)

$$$$
>  <compound>
Cc1c[n+]2c3ccccc3c3ccccc3c2s1.[O-][Cl+3]([O-])([O-])[O-]

>  <tgt>
HOP-62

>  <GI50>
6.52 µM (inactive)

$$$$

[in] State its GI50: Cc1ccc(-n2cc(-c3ccc(Cl)cc3)c3c(=N)n(N)cnc32)cc1
[out] 14.2 µM (inactive)

[in] State its GI50: Brc1cccc(C2(CCCC3(c4cccc(Br)n4)OCCO3)OCCO2)n1
[out] > 100 µM (inactive)

[in] State its GI50: CC(=O)C1(C(=O)C(=[N+]=[N-])S(=O)(=O)c2ccccc2)CC1
[out] > 100 µM (inactive)

[in] State its GI50: Cc1cc2nc3c(N)nn(CCN(C)C)c3nc2cc1C
[out] 26.4 µM (inactive)
